Each entry below carries its reported TGI.
Test system: MALME-3M melanoma
Assay: NCI tumour cell line growth inhibition, 48 h

MOLECULE: CNc1ccc2ncccc2c1[N+](=O)[O-]
TGI: > 100 µM
--
MOLECULE: CCOC(=O)CCC1(C(=O)OCC)CCCC1=O (stereo unspecified)
TGI: > 100 µM
--
MOLECULE: CS[C@]12[C@@H]3C(=O)N(C)C(=O)[C@@H]3[C@](C)(C(=O)N1C)C(=O)N2c1ccccc1
TGI: > 100 µM
--
MOLECULE: N/C(=N\NS(=O)(=O)c1ccccc1)Oc1ccc(Br)cc1Br
TGI: > 100 µM
--
MOLECULE: C[Si](C)(c1ccc(C(=O)O)cc1)c1ccc(C(=O)O)cc1
TGI: > 100 µM
--
MOLECULE: CCOC(=O)c1c(C)n(Cc2ccc(Cl)cc2Cl)c2c1cc1oc(=O)c(=O)n3cnc2c13
TGI: 25.5 µM
--
MOLECULE: O=NN(CCF)C(=O)NC1CC2CCC1C2 (stereo unspecified)
TGI: > 100 µM
--
MOLECULE: COc1cc2ncnc(-n3ncc4cc(NC(=O)Nc5ccc(Cl)c(Cl)c5)ccc43)c2cc1OC
TGI: 3.89 µM
--
MOLECULE: CSc1nc(NC2OC(COC(C)=O)C(OC(C)=O)C(OC(C)=O)C2OC(C)=O)c(N=C(C)C(C)=O)c(=O)[nH]1 (stereo unspecified)
TGI: > 100 µM
--
MOLECULE: [O-][n+]1c(CN2CCCCC2)nc2cccc3c2c1-c1ccccc1-3
TGI: 29 µM
--
MOLECULE: COC(=O)C1=C(O)C(C(=O)OC)[C@]2(O)[C@@H](C(=O)OC)[C@H]1C[C@@H](c1ccccc1)[C@@H]2C(=O)OC (stereo partly specified)
TGI: 45.1 µM
